Values were extracted from PubChem BioAssay.

assayProtocol: small-molecule binders of probe aNOTCH3, primary screen, biochemical, small-molecule microarray, 635/667 nm fluorescence (AID 1120);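 note: probe is a biotin-tagged antibody raised against NOTCH3 rather than NOTCH3 protein; score merges spot fluorescence near 667 nm with spot signal to noise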
conditionContext: higher = more signal

compound	composite z-score
C[C@@H]1CC[C@H]2C(=O)OC(Cc3ccccc3)CN2[C@H]1c1ccc(Br)cc1 (stereo not given in full)	-0.0362
C[C@H]1CC[C@H]2C(=O)OC(COc3ccc(C(C)(C)C)cc3)CN2[C@@H]1c1ccc(Br)cc1 (stereo not given in full)	-0.165
C=CC[C@@H]1C=C[C@H](ON=C(C)CCN2CCCc3nc(C)c(C)cc32)[C@@H](CO)O1	0.712
CCOC(=O)CCN1C(=O)[C@H]2[C@H]3[C@H](O)[C@H](O)CC(=NO[C@@H]4O[C@H](CO)[C@@H](O)[C@H](O)[C@H]4O)[C@H]3CC[C@H]2C1=O	-0.15
CCCC[C@H]1CN2[C@@H](CC[C@@H](C)[C@@H]2c2ccc(Br)cc2)C(=O)O1	-0.137
CCN1C(=O)[C@H]2[C@H]3[C@H](O)[C@H](O)CC(=NOC[C@@H](O)COCc4ccco4)[C@H]3CC[C@H]2C1=O	-0.18
CO[C@H]1COC(=O)CC=C[C@@H](C)COC(=O)[C@H]2CCCN2C(=O)CC=C[C@H]1C	-0.122
C[C@H]1C=CCC(=O)OC[C@H](C)C(=O)N2CCC[C@H]2C(=O)OC1	-0.161
CCOC(=O)[C@H](Cc1ccccc1)NC(=O)CCC1CC(OC(=O)NCc2ccc3c(c2)OCO3)CC2(CCCC(COC(=O)NCCOC)O2)O1 (stereo not given in full)	0.163
COc1ccc(COC(=O)NN=C2C[C@@H](O)[C@@H](O)[C@@H]3[C@@H]4C(=O)N(Cc5ccccc5)C(=O)[C@@H]4CC[C@@H]23)cc1	-0.0362
CC(C)=CCCC(C)=CCON=C1C[C@@H](O)[C@@H](O)[C@@H]2[C@@H]3C(=O)N(Cc4ccc5c(c4)OCO5)C(=O)[C@@H]3CC[C@H]12	0.0568
CCN1C(C)=C(C(=O)OC)[C@@H](c2ccccc2)N2C(=O)[C@](O)(C(=O)OC)CC(C(C)=O)=C12	-0.15
CCOC(=O)[C@H](CC(C)C)NC(=O)CCC1CC(OC(=O)NCc2ccc3c(c2)OCO3)CC2(CCCC(COC(=O)NCCOC)O2)O1 (stereo not given in full)	0.0208
C=CC[C@@H]1C=C[C@H](ON=C[C@@H](NS(=O)(=O)c2ccc(C)cc2)[C@H](C)C=CCC(=O)OC)[C@@H](CO)O1	0.0232
CC(=O)OC[C@H]1O[C@H](CC=NOCC[C@@H]2C=C[C@H](OC(C)=O)[C@@H](COC(C)=O)O2)C=C[C@@H]1OC(C)=O	0.127
C[C@@H]1CC[C@H]2C(=O)O[C@@H](COc3ccc(C(C)(C)C)cc3)CN2[C@H]1c1ccc(Br)cc1	-0.0663
O=C1C2=CC[C@H]3C(=O)N(C4CCCCC4)C(=O)[C@H]3[C@H]2[C@H](O)[C@@H]2O[C@H]12	-0.199
CCOC(=O)[C@H](Cc1ccccc1)NC(=O)CCC1CC(OC(=O)NCc2cccc3ccccc23)CC2(CCCC(COC(=O)NCc3ccc4c(c3)OCO4)O2)O1 (stereo not given in full)	0.0824
COc1ccc(O[C@H]2C=C[C@@H](c3ccccc3)O[C@@H]2CON=C2c3cc(OC)ccc3O[C@H](c3cccc(OC)c3)[C@H]2O)cc1	-0.122
CCOC(=O)CCN1C(=O)[C@H]2[C@H]3[C@H](O)[C@H](O)CC(=NNC(=O)OCC)[C@H]3CC[C@H]2C1=O	0.0927
COc1ccc(OC[C@H]2CN3[C@@H](CC[C@@H](C)[C@@H]3c3ccc(Br)cc3)C(=O)O2)cc1	-0.25
CC(C)CON=C1[C@H]2CCn3c(=O)n(C)c(=O)n3[C@H]2[C@H](O)[C@@H]2O[C@H]12	0.236
C[C@@H]1C=CCC(=O)OC[C@H](C)C(=O)N[C@@H](Cc2ccccc2)C(=O)OC1	-0.133
CCN1C(=O)[C@H]2[C@H]3[C@H](O)[C@H](O)CC(=NOCC[C@@H]4C=C[C@H](OC(C)=O)[C@@H](COC(C)=O)O4)[C@@H]3CC[C@H]2C1=O	-0.149
COC(=O)CC=C1c2ccccc2[C@H](OC)[C@H]1C	0.0026
CCOC(=O)[C@H](Cc1ccccc1)NC(=O)CCC1CC(OC(=O)NCCc2ccc(F)cc2)CC2(CCCC(COC(=O)NCc3cccc(C(F)(F)F)c3)O2)O1 (stereo not given in full)	0.148
C[C@@H]1CC[C@H]2C(=O)OC(CN3C(=O)c4ccccc4C3=O)CN2[C@H]1c1ccc(Br)cc1 (stereo not given in full)	-0.0984
O=C1[C@H]2[C@H]3[C@H](O)[C@H](O)CC(=NO[C@@H]4O[C@H](CO)[C@@H](O)[C@H](O)[C@H]4O)[C@H]3CC[C@H]2C(=O)N1C[C@@H]1CCCO1	-0.136
O=C1C=C[C@@H](O)[C@@H]2[C@@H]3C(=O)N(C4CCCCC4)C(=O)[C@@H]3CC[C@@H]12	0.0738
CCOC(=O)CCN1C(=O)[C@H]2[C@@H]3C(=CC[C@H]2C1=O)C(=O)[C@H]1O[C@H]1[C@H]3O	-0.313
